Just for reference, paper PMC12864922 is where these values come from.

Tgt: TDP-43 (Homo sapiens, UniProt Q13148 1-414)
Sequence (Q13148 whole entry): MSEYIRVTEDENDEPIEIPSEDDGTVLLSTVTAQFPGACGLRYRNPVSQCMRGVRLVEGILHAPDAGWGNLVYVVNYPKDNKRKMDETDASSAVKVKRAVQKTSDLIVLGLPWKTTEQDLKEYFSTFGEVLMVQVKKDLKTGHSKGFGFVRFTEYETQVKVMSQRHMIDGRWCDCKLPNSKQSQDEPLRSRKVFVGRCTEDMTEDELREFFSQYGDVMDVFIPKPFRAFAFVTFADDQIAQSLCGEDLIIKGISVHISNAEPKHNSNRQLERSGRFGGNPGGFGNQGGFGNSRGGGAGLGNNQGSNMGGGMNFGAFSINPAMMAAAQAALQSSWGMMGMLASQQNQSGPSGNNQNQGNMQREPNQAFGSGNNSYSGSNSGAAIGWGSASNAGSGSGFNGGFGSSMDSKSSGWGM
Assay Method Text: RNA Bind-n-Seq with designed 260-mer pool; 25 mM Tris-HCl, 150 mM KCl, 3 mM MgCl2, BSA (printed 500 mg/mL), 20 units/mL SUPERase IN; pH not stated; 500 nM RNA pool, 1 h, 4 C; TDP-43 5, 50, 500 nM; high values mean tight binding
Settings: protein: recombinant; tags: SBP (GST cleaved off with PreScission; pGEX-GST-SBP)
In all, about 9,900 sequences were measured (“r (bound/input frequency ratio)”: median about 0.7, highest 2% from about 6.5 on). What follows is part of a selection rich in the highest values, with near analogues and random picks from the rest.
Assay Readout: binding signal

The examples below pair each entry with its known result.
[[record]]
binder = "ENSMUSG00000031028.409|Tub (ssRNA) RNA: GGGAGUUCUACAGUCCGACGAUCGCUUCGAUAUCCGCAUGCUAACAGGAAGAUCCCUUACCCCUCAUCCCCUCUUCUUUUUGGUCCUUGGCUGGGUAGCAAAUUGGUGAGAAGAGCAGCCUAGUCUGUAAGAGUGCAGGGCAGCUGGAACCUUAGGCAGCUCCUCUGUAUGCUACCGGCUCCACACCCUAACACUCUCCACCCUCUGCUCCAAACCAGUUCUUCUGCAGAGUGGUGAUGUUAGCUUCCCCAGCUCCUCUCCAAGUCUAGCUUUUUCUGUCCUUCUGGCUCCAAGGUGCUCUGUCUCUUGCGGUCGCACUAGUGUGGAAUUCUCGGGUGUCAAGG"
endpoint_result = "0.927 R (bound/input frequency ratio)"

[[record]]
binder = "ENSMUSG00000031028.419|Tub (ssRNA) RNA: GGGAGUUCUACAGUCCGACGAUCGCUUCGAUAUCCGCAUGCUAUGGUGAGAAGAGCAGCCUAGUCUGUAAGAGUGCAGGGCAGCUGGAACCUUAGGCAGCUCCUCUGUAUGCUACCGGCUCCACACCCUAACACUCUCCACCCUCUGCUCCAAACCAGUUCUUCUGCAGAGUGGUGAUGUUAGCUUCCCCAGCUCCUCUCCAAGUCUAGCUUUUUCUGUCCUUCUGGCUCCAAGGUGCUCUGUGUCUGUGUGUGUGUGUCUGUCUGUGUGUGUGUGUGUCGAGGAAAGGGCAAUCUGCAAACACUCUUGCGGUCGCACUAGUGUGGAAUUCUCGGGUGUCAAGG"
endpoint_result = "5.95 R (bound/input frequency ratio)"


// batch mode: one binding signal value per listed entry
1. ENSMUSG00000031028.420|Tub (ssRNA) RNA: GGGAGUUCUACAGUCCGACGAUCGCUUCGAUAUCCGCAUGCUAGAAGAGCAGCCUAGUCUGUAAGAGUGCAGGGCAGCUGGAACCUUAGGCAGCUCCUCUGUAUGCUACCGGCUCCACACCCUAACACUCUCCACCCUCUGCUCCAAACCAGUUCUUCUGCAGAGUGGUGAUGUUAGCUUCCCCAGCUCCUCUCCAAGUCUAGCUUUUUCUGUCCUUCUGGCUCCAAGGUGCUCUGUGUCUGUGUGUGUGUGUCUGUCUGUGUGUGUGUGUGUCGAGGAAAGGGCAAUCUGCAAACAAUGAACCUCUUGCGGUCGCACUAGUGUGGAAUUCUCGGGUGUCAAGG
2. ENSMUSG00000031028.421|Tub (ssRNA) RNA: GGGAGUUCUACAGUCCGACGAUCGCUUCGAUAUCCGCAUGCUACAGCCUAGUCUGUAAGAGUGCAGGGCAGCUGGAACCUUAGGCAGCUCCUCUGUAUGCUACCGGCUCCACACCCUAACACUCUCCACCCUCUGCUCCAAACCAGUUCUUCUGCAGAGUGGUGAUGUUAGCUUCCCCAGCUCCUCUCCAAGUCUAGCUUUUUCUGUCCUUCUGGCUCCAAGGUGCUCUGUGUCUGUGUGUGUGUGUCUGUCUGUGUGUGUGUGUGUCGAGGAAAGGGCAAUCUGCAAACAAUGAACAGAAGUCUCUUGCGGUCGCACUAGUGUGGAAUUCUCGGGUGUCAAGG

A:
["7.33 R (bound/input frequency ratio)", "5.82 R (bound/input frequency ratio)"]
